Assay: Water solubility
measured-property: water solubility (in words)

molecule=O=NN(CCCl)C(=O)NN1CCOCC1 result=water-soluble
molecule=O=NN(CCCl)C(=O)NN1CCCCC1 result=water-soluble
molecule="CC1CN(NC(=O)N(CCCl)N=O)CC(C)O1 (stereo not shown)" result=water-soluble

###

Entries annotated with measured % M (median survival time, untreated control = 100)
Test system: Yoshida sarcoma
Assay type: in vivo, rat (male Sprague-Dawley rats)
Details: Experiment 5; CP 70, picolyl-3-CNU.HCl 25, morpholino-CNU 28, piperidino-CNU 15 mg/kg
Where a name gives a salt, the structure may show the parent alone.
measured-property: % M (median survival time, untreated control = 100) (%)

molecule="O=P1(N(CCCl)CCCl)NCCCO1 (stereo not shown)" measured_number=400
molecule=O=NN(CCCl)C(=O)NN1CCCCC1 measured_number=160
molecule="O=NN(CCCl)C(=O)NCc1cccnc1 [Picolyl-3-CNU.HCl]" measured_number=150
molecule=O=NN(CCCl)C(=O)NN1CCOCC1 measured_number=180

###

System: Yoshida sarcoma
Type: in vivo, rat (male Sprague-Dawley rats)
Settings: Experiment 5; i.p. day 8; CP 70, picolyl-3-CNU.HCl 25, morpholino-CNU 28, piperidino-CNU 15 mg/kg
Structures can show the parent of a compound that is named as a salt.
measured-property: M = median survival time (days)

molecule="O=NN(CCCl)C(=O)NN1CCCCC1 [Piperidino-CNU]" measured_property="M = median survival time" measured_number=16
molecule="O=NN(CCCl)C(=O)NCc1cccnc1 [Picolyl-3-CNU.HCl]" measured_property="M = median survival time" measured_number=15
molecule="O=NN(CCCl)C(=O)NN1CCOCC1 [Morpholino-CNU]" measured_property="M = median survival time" measured_number=18
molecule="O=P1(N(CCCl)CCCl)NCCCO1 (stereo not shown) [CP]" measured_property="M = median survival time" measured_number=40
